Target: PLK4 (Homo sapiens, UniProt O00444)
Sequence (O00444 1-970): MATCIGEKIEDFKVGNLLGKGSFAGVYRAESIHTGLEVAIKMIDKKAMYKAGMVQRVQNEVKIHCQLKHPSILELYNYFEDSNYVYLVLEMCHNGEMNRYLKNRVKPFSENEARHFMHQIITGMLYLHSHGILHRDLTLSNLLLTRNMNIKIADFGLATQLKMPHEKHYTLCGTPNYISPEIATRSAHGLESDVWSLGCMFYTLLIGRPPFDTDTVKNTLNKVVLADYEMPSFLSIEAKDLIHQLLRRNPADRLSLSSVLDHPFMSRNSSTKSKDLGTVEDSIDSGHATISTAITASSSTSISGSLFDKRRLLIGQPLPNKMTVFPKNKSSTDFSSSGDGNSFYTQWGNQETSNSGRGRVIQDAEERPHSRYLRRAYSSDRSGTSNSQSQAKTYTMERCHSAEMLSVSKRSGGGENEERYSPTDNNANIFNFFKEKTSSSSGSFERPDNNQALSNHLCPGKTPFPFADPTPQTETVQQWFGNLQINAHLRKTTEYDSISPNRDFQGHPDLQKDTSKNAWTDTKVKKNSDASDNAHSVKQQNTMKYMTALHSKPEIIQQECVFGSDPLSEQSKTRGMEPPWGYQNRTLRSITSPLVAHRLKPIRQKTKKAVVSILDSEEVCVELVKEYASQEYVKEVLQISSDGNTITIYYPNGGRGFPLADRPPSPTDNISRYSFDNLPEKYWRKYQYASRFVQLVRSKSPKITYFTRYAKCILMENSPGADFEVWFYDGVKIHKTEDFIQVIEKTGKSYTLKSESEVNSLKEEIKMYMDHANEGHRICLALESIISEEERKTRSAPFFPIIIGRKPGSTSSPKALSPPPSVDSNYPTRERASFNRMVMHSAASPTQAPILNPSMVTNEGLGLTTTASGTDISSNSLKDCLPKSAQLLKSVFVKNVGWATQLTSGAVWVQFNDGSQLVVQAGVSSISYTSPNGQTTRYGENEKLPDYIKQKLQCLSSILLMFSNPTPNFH
quantity measured: IC50
Record the result as number plus unit.

IC50 reading for COc1cc2c(cc1F)C(c1ccccc1Cl)=Nc1c(n[nH]c1C)N2 [R1530] : 7.06 nM

IC50 reading for COc1c(Nc2cc(C)[nH]n2)nc(Sc2ccc(S(=O)(=O)Cc3cccc([N+](=O)[O-])c3F)cc2F)nc1N1CCCCC1 [centrinone B] : 8.69 nM

IC50 reading for COc1ccc2c(c1)/C(=C\c1ccc3c(/C=C/c4ccc(N5CCN(C)CC5)nc4)n[nH]c3c1)C(=O)N2 [CFI-400437] : 1.55 nM

###

Hi there, I'd appreciate the recorded IC50 for every entry that follows.
System: BT-12 cells
Format: cell-based
Conditions: Homo sapiens, BT-12, read-out: MTT: IC50 of the proliferation assay

Field IC50 (BT-12 cells), entry COc1cc2c(cc1F)C(c1ccccc1Cl)=Nc1c(n[nH]c1C)N2 [R1530] : > 10 µM

Field IC50 (BT-12 cells), entry COc1c(Nc2cc(C)[nH]n2)nc(Sc2ccc(S(=O)(=O)Cc3cccc([N+](=O)[O-])c3F)cc2F)nc1N1CCCCC1 [centrinone B] : 5.19 µM

Field IC50 (BT-12 cells), entry COc1ccc2c(c1)/C(=C\c1ccc3c(/C=C/c4ccc(N5CCN(C)CC5)nc4)n[nH]c3c1)C(=O)N2 [CFI-400437] : 0.0616 µM

###

Biological target: AURKC (Homo sapiens, UniProt Q9UQB9)
Sequence (Q9UQB9 1-309): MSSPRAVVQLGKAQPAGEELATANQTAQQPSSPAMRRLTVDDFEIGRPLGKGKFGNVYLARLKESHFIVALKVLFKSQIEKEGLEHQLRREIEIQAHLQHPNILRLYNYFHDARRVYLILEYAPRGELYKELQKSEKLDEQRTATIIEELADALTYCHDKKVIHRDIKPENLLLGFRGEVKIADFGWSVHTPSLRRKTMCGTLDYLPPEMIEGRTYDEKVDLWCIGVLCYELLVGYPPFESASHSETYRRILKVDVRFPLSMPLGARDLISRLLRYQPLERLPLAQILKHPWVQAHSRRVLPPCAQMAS
With a cut-off of 0.009 µM, any IC50 strictly below it is called MET; any IC50 meeting it or above is called NOT MET.

Exercise: Input COc1cc(Nc2ncc3c(n2)-c2ccc(Cl)cc2C(c2c(F)cccc2OC)=NC3)ccc1C(=O)O ; condition: IC50 strictly below 0.009 µM. Does it hold?
Solution: NOT MET

Exercise: Input COc1c(Nc2cc(C)[nH]n2)nc(Sc2ccc(S(=O)(=O)Cc3cccc([N+](=O)[O-])c3F)cc2F)nc1N1CCOCC1 ; condition: IC50 strictly below 0.009 µM. Does it hold?
Solution: NOT MET

Exercise: Input COc1cc2c(cc1F)C(c1ccccc1Cl)=Nc1c(n[nH]c1C)N2 ; condition: IC50 strictly below 0.009 µM. Does it hold?
Solution: NOT MET

Exercise: Input COc1c(Nc2cc(C)[nH]n2)nc(Sc2ccc(S(=O)(=O)Cc3cccc([N+](=O)[O-])c3F)cc2F)nc1N1CCCCC1 ; condition: IC50 strictly below 0.009 µM. Does it hold?
Solution: NOT MET

Exercise: Input COc1ccc2c(c1)/C(=C\c1ccc3c(/C=C/c4ccc(N5CCN(C)CC5)nc4)n[nH]c3c1)C(=O)N2 ; condition: IC50 strictly below 0.009 µM. Does it hold?
Solution: MET

###

quantity measured: IC50 (µM)
Number in µM, nothing else.

Field IC50 (P450 2B6 (Homo sapiens)), entry O=C(c1ccc(/C=C/c2n[nH]c3ccccc23)cc1)N1CCNCC1 : 9.8

###

Test system: DAOY cells
Test: PrestoBlue Cell Viability assay
Type: cell-based
Details: Homo sapiens, read-out: PB: IC50 of the PrestoBlue Viability assay
quantity measured: pIC50
// returns pIC50 (minus log10 of molar concentration), number only

pIC50 reading for COc1cc2c(cc1F)C(c1ccccc1Cl)=Nc1c(n[nH]c1C)N2 [R1530] : 5.73

pIC50 reading for COc1c(Nc2cc(C)[nH]n2)nc(Sc2ccc(S(=O)(=O)Cc3cccc([N+](=O)[O-])c3F)cc2F)nc1N1CCOCC1 [centrinone] : 5.35

pIC50 reading for COc1ccc2c(c1)[C@]1(C[C@H]1c1ccc3c(/C=C/c4ccc(CN5C[C@@H](C)O[C@@H](C)C5)cc4)n[nH]c3c1)C(=O)N2 [CFI-400945] : 7.03

pIC50 reading for COc1ccc2c(c1)/C(=C\c1ccc3c(/C=C/c4ccc(N5CCN(C)CC5)nc4)n[nH]c3c1)C(=O)N2 [CFI-400437] : 6.11

pIC50 reading for COc1cc(Nc2ncc3c(n2)-c2ccc(Cl)cc2C(c2c(F)cccc2OC)=NC3)ccc1C(=O)O [alisertib] : 7.51

###

Hi there, I'd appreciate the recorded pIC50 for every entry that follows.
// returns pIC50 (minus log10 of molar concentration), number only

Field pIC50 (AURKB (Homo sapiens, UniProt Q96GD4)), entry COc1ccc2c(c1)/C(=C\c1ccc3c(/C=C/c4ccc(N5CCN(C)CC5)nc4)n[nH]c3c1)C(=O)N2 : 7.88

Field pIC50 (AURKB (Homo sapiens, UniProt Q96GD4)), entry COc1c(Nc2cc(C)[nH]n2)nc(Sc2ccc(S(=O)(=O)Cc3cccc([N+](=O)[O-])c3F)cc2F)nc1N1CCCCC1 : 5.00

Field pIC50 (AURKB (Homo sapiens, UniProt Q96GD4)), entry COc1cc2c(cc1F)C(c1ccccc1Cl)=Nc1c(n[nH]c1C)N2 : 7.37

Field pIC50 (AURKB (Homo sapiens, UniProt Q96GD4)), entry COc1c(Nc2cc(C)[nH]n2)nc(Sc2ccc(S(=O)(=O)Cc3cccc([N+](=O)[O-])c3F)cc2F)nc1N1CCOCC1 : 6.17

Each recorded value in this set is attributed to paper PMC6540285.
